// Euclidean distance lookup, one value per entry
Test system: 786-O
Assay: Euclidean distance of Cell Painting phenotypic profile (signed KS, 77 features) to DMSO centroid (dimensionless distance); 5 or 10 uM (library dependent); higher = stronger phenotypic change vs DMSO (phenoactivity)
Details: 48 h

compound: COc1ccc(C(C)=O)c(O)c1
Euclidean distance: 1.07

compound: CN1C2CCCC1CC(NC(=O)c1nn(C)c3ccccc13)C2 (centres undefined)
Euclidean distance: 1.06

compound: Nc1nccc2c1ncn2C1C=C(CO)C(O)C1O (centres undefined)
Euclidean distance: 2.28

compound: C=C1[C@H](CO)[C@@H](O)C[C@@H]1n1cnc2c(=O)[nH]c(N)nc21
Euclidean distance: 1.46

compound: CC/C=C\C/C=C\C/C=C\C/C=C\C/C=C\CCCC(=O)O
Euclidean distance: 0.992

compound: Cc1ccc(-c2cc(C(F)(F)F)nn2-c2ccc(S(N)(=O)=O)cc2)cc1
Euclidean distance: 1.6

compound: Cn1cnc2c(F)c(Nc3ccc(Br)cc3Cl)c(C(=O)NOCCO)cc21
Euclidean distance: 2.23

compound: COc1cc(OC)cc(N(CCNC(C)C)c2ccc3ncc(-c4cnn(C)c4)nc3c2)c1
Euclidean distance: 3.65

compound: CCNC(=O)[C@@H]1CCCN1C(=O)[C@H](CCCNC(=N)N)NC(=O)[C@H](CC(C)C)NC(=O)[C@@H](CC(C)C)NC(=O)[C@H](Cc1ccc(O)cc1)NC(=O)[C@H](CO)NC(=O)[C@H](Cc1c[nH]c2ccccc12)NC(=O)[C@H](Cc1c[nH]cn1)NC(=O)[C@@H]1CCC(=O)N1 [Leuprolide Acetate]
Euclidean distance: 0.73

compound: COc1ccc2cc([C@H](C)C(=O)O)ccc2c1
Euclidean distance: 0.797

compound: CC(C)[N+](C)(CCOC(=O)C1c2ccccc2Oc2ccccc21)C(C)C [Propantheline bromide]
Euclidean distance: 0.803

compound: O=C(Nc1ccc(-c2ccnc(Nc3ccc(N4CCOCC4)cc3)n2)cc1)C1CCCN1 (centres undefined)
Euclidean distance: 0.834

compound: COc1ccc2cccc(CCNC(C)=O)c2c1
Euclidean distance: 0.998

compound: NC(=O)c1ncn([C@@H]2O[C@H](CO)[C@@H](O)[C@H]2O)n1
Euclidean distance: 0.706

compound: O=C(/C=C/c1cccc(S(=O)(=O)Nc2ccccc2)c1)NO
Euclidean distance: 1.71

compound: Nc1nc2n[nH]nc2c(=O)[nH]1
Euclidean distance: 1.55

compound: C[C@H]1O[C@@H](n2cc(F)c(=O)[nH]c2=O)[C@H](O)[C@@H]1O
Euclidean distance: 0.747

compound: C[C@H]1O[C@H](O[C@H]2[C@H](O)[C@@H](O)[C@@H](O[C@H]3[C@H](O)[C@@H](O)C(O)O[C@@H]3CO)O[C@@H]2CO)[C@H](O)[C@@H](O)[C@@H]1N[C@H]1C=C(CO)[C@@H](O)[C@H](O)[C@H]1O (some centres undefined)
Euclidean distance: 1.5

compound: O=C(Nc1ccccc1)Nc1ccc(-c2ccc(C(=O)[C@@H]3CCC[C@H]3C(=O)O)cc2)cc1
Euclidean distance: 0.735

compound: O=C(O)[C@@H](S)[C@@H](S)C(=O)O
Euclidean distance: 1.49

compound: C[C@]12CC[C@@H]3c4ccc(OS(=O)(=O)O)cc4CC[C@H]3[C@@H]1CCC2=O [Estropipate]
Euclidean distance: 0.946

compound: CO[C@@H]1[C@@H](O[C@@H]2O[C@H](C)[C@@H](O[C@H]3C[C@@](C)(O)[C@@H](O)[C@H](C)O3)[C@H](N(C)C)[C@H]2O)[C@@H](CC=O)C[C@@H](C)[C@@H](O[C@H]2CC[C@H](N(C)C)[C@@H](C)O2)/C=C/C=C/C[C@@H](C)OC(=O)C[C@H]1OC(C)=O
Euclidean distance: 0.993

compound: CC1=NN(c2ccc(C)c(C)c2)C(=O)/C1=N\Nc1cccc(-c2cccc(C(=O)O)c2)c1O [Eltrombopag]
Euclidean distance: 2.4

compound: O=C(O)Cc1ccccc1Nc1c(Cl)cccc1Cl [Diclofenac Sodium]
Euclidean distance: 1.2
